experiment: Clearance in Sprague-Dawley rat at 1 mg/kg, iv and 2 mg/kg, po; format: ADME, organism-based; settings: in vivo
recordedEndpoint: clearance (mL/min/kg)
The response must be a number in mL/min/kg with no trailing unit.

Below are worked cases with known answers.
compound	unitsOfMeasure	experimentalValue
O=C(O)C[C@@H]1CN[C@@H](c2ccc(-c3noc(-c4ccc([C@@H]5CCC(F)(F)C5)cc4)n3)cc2)C1 (stereo in doubt; 22g)	mL/min/kg	2.1
CC(C)Cc1ccc(-c2nc(-c3ccc([C@H]4C[C@H](CC(=O)O)CN4)cc3)no2)cc1 (relative stereo)	mL/min/kg	7.4
O=C(O)C[C@@H]1CN[C@@H](c2ccc(-c3noc(-c4ccc(C5CCC(F)(F)CC5)cc4)n3)cc2)C1 (relative stereo)	mL/min/kg	3.5

QUERY: Param item = CC(C)Cc1ccc(-c2nc(-c3ccc([C@H]4C[C@@H](CC(=O)O)CN4)cc3)no2)cc1 (relative stereo) ; retrieve measured clearance.
RESULT: 3.4

* * *

target: Sphingosine 1-phosphate receptor 1 (Homo sapiens); assay: Displacement of [33P]S1P from human S1P1 receptor expressed in CHO cells
Sequence (P21453 whole entry): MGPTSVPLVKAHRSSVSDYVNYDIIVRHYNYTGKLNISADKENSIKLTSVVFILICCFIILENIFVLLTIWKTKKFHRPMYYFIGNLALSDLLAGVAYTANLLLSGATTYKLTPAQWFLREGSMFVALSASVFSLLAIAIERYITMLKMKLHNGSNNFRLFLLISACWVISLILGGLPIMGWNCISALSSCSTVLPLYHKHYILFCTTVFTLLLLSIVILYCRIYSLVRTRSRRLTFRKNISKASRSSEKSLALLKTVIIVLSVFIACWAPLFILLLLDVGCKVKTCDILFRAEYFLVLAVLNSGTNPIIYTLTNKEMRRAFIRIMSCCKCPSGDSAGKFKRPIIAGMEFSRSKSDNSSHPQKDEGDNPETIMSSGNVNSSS
Listed next: entries and their corresponding IC50.
Kindly answer with a numeric value in nM, unit omitted.

compound	subjectOfTest	recordedEndpoint	experimentalValue
O=C(O)C[C@@H]1CN[C@@H](c2ccc(-c3noc(-c4ccc(C5CCCC5)cc4)n3)cc2)C1 (relative stereo)	Sphingosine 1-phosphate receptor 1 (Homo sapiens)	IC50	1
CC(C)Cc1ccc(-c2nc(-c3ccc([C@H]4C[C@H](CC(=O)O)CN4)cc3)no2)cc1 (relative stereo)	Sphingosine 1-phosphate receptor 1 (Homo sapiens)	IC50	5.7
O=C(O)CC1CNC(c2ccc(OCc3cc(-c4ccccc4)c(C(F)(F)F)s3)cc2)C1 (centres undefined)	Sphingosine 1-phosphate receptor 1 (Homo sapiens)	IC50	2.2

QUERY: Item under review: O=C(O)C1CNC(c2ccc(OCc3cc(-c4ccccc4)c(C(F)(F)F)s3)cc2)C1 (centres undefined) . Reported IC50?
RESULT: 25

* * *

experiment: Half life in Sprague-Dawley rat at 1 mg/kg, iv and 2 mg/kg, po; assay type: ADME, organism-based; details: in vivo
// values below are reported half-life
I only need the number, in h, no unit after it.

QUERY: Using the record for O=C(O)C[C@@H]1CN[C@@H](c2ccc(-c3noc(-c4ccc(C5CCC(F)(F)CC5)cc4)n3)cc2)C1 (relative stereo) , report its half-life.
RESULT: 4.4

QUERY: Further, for CC(C)Cc1ccc(-c2nc(-c3ccc([C@H]4C[C@H](CC(=O)O)CN4)cc3)no2)cc1 (relative stereo) ?
RESULT: 10.7

QUERY: Also need CC(C)Cc1ccc(-c2nc(-c3ccc([C@H]4C[C@@H](CC(=O)O)CN4)cc3)no2)cc1 (relative stereo) , thanks.
RESULT: 10.9

QUERY: And O=C(O)C[C@@H]1CN[C@@H](c2ccc(-c3noc(-c4ccc([C@@H]5CCC(F)(F)C5)cc4)n3)cc2)C1 (stereo in doubt; 22g) ?
RESULT: 5.6

* * *

molecular target: Sphingosine 1-phosphate receptor 4 (Homo sapiens); test: Displacement of [33P]S1P from human S1P4 receptor expressed in CHO cells
Sequence (O95977 whole entry): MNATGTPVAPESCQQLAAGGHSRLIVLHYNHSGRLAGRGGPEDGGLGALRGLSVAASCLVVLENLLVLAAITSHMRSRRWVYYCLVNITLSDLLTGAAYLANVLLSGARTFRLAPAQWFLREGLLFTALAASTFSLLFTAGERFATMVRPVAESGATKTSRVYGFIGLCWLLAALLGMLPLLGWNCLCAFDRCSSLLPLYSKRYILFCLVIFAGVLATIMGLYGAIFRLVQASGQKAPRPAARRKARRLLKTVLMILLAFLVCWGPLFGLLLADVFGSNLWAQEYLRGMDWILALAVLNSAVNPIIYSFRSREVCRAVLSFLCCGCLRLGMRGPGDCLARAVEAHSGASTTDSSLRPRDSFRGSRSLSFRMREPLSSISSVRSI
recordedEndpoint: pIC50
Value format note: pIC50 is -log10 of concentration (mol/L); just state the number.

QUERY: Entry under review: O=C(O)CC1CNC(c2ccc(OCc3cc(-c4ccccc4)c(C(F)(F)F)s3)cc2)C1 (centres undefined) . Reported pIC50?
RESULT: 6.41

QUERY: Please do the same for O=C(O)C[C@@H]1CN[C@@H](c2ccc(-c3noc(-c4ccc([C@@H]5CCC(F)(F)C5)cc4)n3)cc2)C1 (stereo in doubt; 22g) as well.
RESULT: 6.10

QUERY: Would you kindly repeat that for O=C(O)C[C@@H]1CN[C@@H](c2ccc(-c3noc(-c4ccc(CCC(F)(F)F)cc4)n3)cc2)C1 (relative stereo) ?
RESULT: 6.64

QUERY: Repeat for the following compound: O=C(O)C[C@@H]1CN[C@@H](c2ccc(-c3noc(-c4ccc(C5CCCC5)cc4)n3)cc2)C1 (relative stereo)
RESULT: 6.92

* * *

molecular target: Sphingosine 1-phosphate receptor 3 (Homo sapiens, UniProt Q99500); test: Displacement of [33P]S1P from human S1P3 receptor expressed in CHO cells
Sequence (Q99500 whole entry): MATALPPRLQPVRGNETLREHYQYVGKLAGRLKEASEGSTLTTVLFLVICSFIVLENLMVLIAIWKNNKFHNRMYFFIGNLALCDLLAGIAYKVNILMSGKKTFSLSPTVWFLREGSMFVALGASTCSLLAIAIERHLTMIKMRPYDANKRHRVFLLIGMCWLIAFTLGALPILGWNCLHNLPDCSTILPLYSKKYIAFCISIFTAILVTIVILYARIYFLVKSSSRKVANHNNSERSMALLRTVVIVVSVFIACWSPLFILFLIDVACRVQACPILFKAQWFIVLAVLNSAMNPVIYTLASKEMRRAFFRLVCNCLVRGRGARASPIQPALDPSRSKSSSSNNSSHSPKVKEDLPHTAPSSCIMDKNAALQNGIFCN
Simple rule here: IC50 less than 2000 nM is 1.0, otherwise 0.0.

QUERY: Dear reviewer, please state whether CC(C)Cc1ccc(-c2nc(-c3ccc([C@H]4C[C@@H](CC(=O)O)CN4)cc3)no2)cc1 (relative stereo) has IC50 strictly beneath 2000 nM.
RESULT: 1.0

QUERY: Also check O=C(O)C[C@@H]1CN[C@@H](c2ccc(-c3noc(-c4ccc(C5CCC(F)(F)CC5)cc4)n3)cc2)C1 (relative stereo)
RESULT: 1.0

QUERY: Also need O=C(O)C1CNC(c2ccc(OCc3cc(-c4ccccc4)c(C(F)(F)F)s3)cc2)C1 (stereo not drawn) , thanks.
RESULT: 0.0

QUERY: Would you mind doing O=C(O)C[C@@H]1CN[C@@H](c2ccc(-c3noc(-c4ccc([C@@H]5CCC(F)(F)C5)cc4)n3)cc2)C1 (stereo in doubt; 22f) as well?
RESULT: 1.0

QUERY: Now consider O=C(O)C[C@@H]1CN[C@@H](c2ccc(-c3noc(-c4ccc(C5CCCCC5)cc4)n3)cc2)C1 (relative stereo) and answer again.
RESULT: 0.0

* * *

target: Sphingosine 1-phosphate receptor 5 (Homo sapiens, UniProt Q9H228); assay: Displacement of [33P]S1P from human S1P5 receptor expressed in CHO cells
Sequence (Q9H228 whole entry): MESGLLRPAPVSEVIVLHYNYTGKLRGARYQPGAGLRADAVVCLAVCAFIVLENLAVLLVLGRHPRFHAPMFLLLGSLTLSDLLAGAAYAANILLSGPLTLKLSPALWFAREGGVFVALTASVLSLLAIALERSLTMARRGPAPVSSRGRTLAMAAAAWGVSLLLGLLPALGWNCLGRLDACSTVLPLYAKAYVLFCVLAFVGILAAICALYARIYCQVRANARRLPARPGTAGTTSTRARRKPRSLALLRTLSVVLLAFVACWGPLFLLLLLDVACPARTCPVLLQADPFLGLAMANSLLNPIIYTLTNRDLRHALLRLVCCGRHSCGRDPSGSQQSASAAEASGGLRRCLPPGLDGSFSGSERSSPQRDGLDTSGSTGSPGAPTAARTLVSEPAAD
Field 'label' (enum: MET / NOT MET). Set to MET when IC50 is strictly under 50 nM; else NOT MET.

compound	discreteLabel
O=C(O)CC1CNC(c2ccc(OCc3cc(-c4ccccc4)c(C(F)(F)F)s3)cc2)C1 (stereo not given)	NOT MET

QUERY: In plain terms, does O=C(O)C[C@@H]1CN[C@@H](c2ccc(-c3noc(-c4ccc(C5CCCCC5)cc4)n3)cc2)C1 (relative stereo) come in under 50 nM for IC50?
RESULT: NOT MET

QUERY: Check CC(C)Cc1ccc(-c2nc(-c3ccc([C@H]4C[C@@H](CC(=O)O)CN4)cc3)no2)cc1 (relative stereo) too.
RESULT: NOT MET

QUERY: How about O=C(O)C[C@@H]1CN[C@@H](c2ccc(-c3noc(-c4ccc(C5CCC(F)(F)CC5)cc4)n3)cc2)C1 (relative stereo) ?
RESULT: MET

* * *

target: Sphingosine 1-phosphate receptor 3 (Homo sapiens, UniProt Q99500); experiment: Displacement of [33P]S1P from human S1P3 receptor expressed in CHO cells
pIC50: −log10 of the molar value.
recordedEndpoint: pIC50

molecule	pIC50
CC(C)Cc1ccc(-c2nc(-c3ccc([C@H]4C[C@H](CC(=O)O)CN4)cc3)no2)cc1 (relative stereo)	< 6.00
O=C(O)C[C@@H]1CN[C@@H](c2ccc(-c3noc(-c4ccc(C5CCCC5)cc4)n3)cc2)C1 (relative stereo)	< 6.00

QUERY: Would you kindly share the measured pIC50 for O=C(O)C[C@@H]1CN[C@@H](c2ccc(-c3noc(-c4ccc(CCC(F)(F)F)cc4)n3)cc2)C1 (relative stereo) ?
RESULT: < 6.00
